So I've got a bunch of compounds here, and I need their relative IC50 of cell viability values.
# Test system: NCI-H2122
# experiment: relative IC50 of cell viability (CellTiter-Glo); higher = less potent
Response body: numeric value in nM, unit text excluded.

Please report the recorded relative IC50 of cell viability for CCS(=O)(=O)Nc1ccc2c(c1)/C(=C(/Nc1ccc(CN3CCCCC3)cc1)c1ccccc1)C(=O)N2 [Hesperadin] (top concentration tested 10000 nM) .
19

Please report the recorded relative IC50 of cell viability for C#Cc1cccc(Nc2ncnc3cc(OCCOC)c(OCCOC)cc23)c1 [Erlotinib] (top concentration tested 10000 nM) .
4260

Please report the recorded relative IC50 of cell viability for COc1cc(CCc2cc(NC(=O)c3ccc(N4CC(C)NC(C)C4)cc3)n[nH]2)cc(OC)c1 (configuration not stated) [AZD4547] (top concentration tested 10000 nM) .
4100

Please report the recorded relative IC50 of cell viability for CC1(C)CCC(c2ccc(Cl)cc2)=C(CN2CCN(c3ccc(C(=O)NS(=O)(=O)c4ccc(N[C@H](CCN5CCOCC5)CSc5ccccc5)c(S(=O)(=O)C(F)(F)F)c4)cc3)CC2)C1 [ABT-263] (top concentration tested 10000 nM) .
6240

Please report the recorded relative IC50 of cell viability for COc1ccc2nc3ccc(OC)cc3c(SCCCN)c2c1 (top concentration tested 10000 nM) .
9650

Please report the recorded relative IC50 of cell viability for Cc1cn(CCN2CCN(c3ccccc3-c3cc(C#N)cc(C(=O)NCCCN4CCCC4)c3)CC2)c2ccccc12 [LLY-507] (top concentration tested 9999.9 nM) .
2850

Please report the recorded relative IC50 of cell viability for COc1cc2ncnc(Nc3ccc(F)c(Cl)c3)c2cc1OCCCN1CCOCC1 [Gefitinib] (top concentration tested 9999.9 nM) .
3100

Please report the recorded relative IC50 of cell viability for COc1cccc2c1C(=O)c1c(O)c3c(c(O)c1C2=O)C[C@@](O)(C(=O)CO)C[C@@H]3O[C@H]1C[C@H](N)[C@H](O)[C@H](C)O1 [Doxorubicin] (top concentration tested 1000 nM) .
207

Please report the recorded relative IC50 of cell viability for Cc1[nH]c(/C=C2\C(=O)Nc3ccc(S(=O)(=O)Cc4c(Cl)cccc4Cl)cc32)c(C)c1C(=O)N1CCC[C@@H]1CN1CCCC1 (top concentration tested 10000 nM) .
3030

Please report the recorded relative IC50 of cell viability for CN(NC(=O)CC(=O)NN(C)C(=S)c1ccccc1)C(=S)c1ccccc1 [Elesclomol] (top concentration tested 10000 nM) .
22.7

Please report the recorded relative IC50 of cell viability for Cc1cc(C)c(CNC(=O)c2cc(-c3ccc(N4CCNCC4)nc3)cc3c2c(C)cn3C2CCCC2)c(=O)[nH]1 (top concentration tested 50000 nM) .
17400

Please report the recorded relative IC50 of cell viability for Nc1ccn([C@@H]2O[C@H](CO)[C@@H](O)C2(F)F)c(=O)n1 [Gemcitabine] (top concentration tested 99.925 nM) .
7.62

Please report the recorded relative IC50 of cell viability for COc1cccc2c1C(=O)c1c(O)c3c(c(O)c1C2=O)C[C@@](O)(C(C)=O)C[C@@H]3O[C@H]1C[C@H](N)[C@H](O)[C@H](C)O1 [Daunorubicin] (top concentration tested 1000 nM) .
120

Please report the recorded relative IC50 of cell viability for CC(=O)[C@]1(O)Cc2c(O)c3c(c(O)c2[C@@H](O[C@H]2C[C@H](N)[C@H](O)[C@H](C)O2)C1)C(=O)c1ccccc1C3=O [Idarubicin] (top concentration tested 100.01 nM) .
9.8

Please report the recorded relative IC50 of cell viability for CN1CC[C@H](c2c(O)cc(O)c3c(=O)cc(-c4ccccc4Cl)oc23)[C@H](O)C1 [Flavopiridol] (top concentration tested 500.11 nM) .
149

Please report the recorded relative IC50 of cell viability for CC(C)(C)c1ccc(S(=O)(=O)NCc2ccc(C(=O)Nc3cccnc3)cc2)cc1 [STF-31] (top concentration tested 10000 nM) .
5790

Please report the recorded relative IC50 of cell viability for Cn1c(=O)n(-c2ccc(C(C)(C)C#N)cc2)c2c3cc(-c4cnc5ccccc5c4)ccc3ncc21 [NVP-BEZ235] (top concentration tested 999.9 nM) .
58.5

Please report the recorded relative IC50 of cell viability for COc1cc([C@@H]2c3cc4c(cc3[C@@H](O[C@@H]3O[C@@H]5CO[C@@H](C)O[C@H]5[C@H](O)[C@H]3O)[C@H]3COC(=O)[C@H]23)OCO4)cc(OC)c1O [Etoposide] (top concentration tested 10000 nM) .
995

Please report the recorded relative IC50 of cell viability for COc1cc(N2CCC(N3CCN(C)CC3)CC2)ccc1Nc1ncc(Cl)c(Nc2ccccc2S(=O)(=O)C(C)C)n1 [NVP-TAE684] (top concentration tested 10000 nM) .
384

Please report the recorded relative IC50 of cell viability for C/C=C1\NC(=O)[C@H]2CSSCC/C=C/[C@H](CC(=O)N[C@H](C(C)C)C(=O)N2)OC(=O)[C@H](C(C)C)NC1=O [Romidepsin] (top concentration tested 10000 nM) .
5.65

Please report the recorded relative IC50 of cell viability for N#CN=C(NCCCCCCOc1ccc(Cl)cc1)Nc1ccncc1 [GMX1778] (top concentration tested 9999.9 nM) .
210

Please report the recorded relative IC50 of cell viability for Cc1[nH]c2ccccc2c1CCNCc1ccc(/C=C/C(=O)NO)cc1 [Panobinostat] (top concentration tested 99.878 nM) .
16.4

All figures here come from the supplement of paper PMC11424490.
